molecular target: MMP-3 (stromelysin-1) catalytic domain (Homo sapiens, UniProt P08254)
Sequence (P08254 100-272 limits assumed): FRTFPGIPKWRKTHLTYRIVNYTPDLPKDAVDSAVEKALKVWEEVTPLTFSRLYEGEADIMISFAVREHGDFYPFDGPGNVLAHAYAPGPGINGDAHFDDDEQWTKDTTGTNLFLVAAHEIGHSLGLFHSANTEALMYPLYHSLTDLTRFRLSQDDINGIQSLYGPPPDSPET

{"columns": ["CHEMICAL STRUCTURE", "IC50 (µM)"],
 "data": [
  ["CC(C)C[C@@H](NC(=O)[C@@H]1CCCN1C(=O)CNC(=O)c1ccc(N)cc1)C(=O)N[C@H](C)C(=O)NO", 16.2]
]}

* * *

biological target: MMP-9 (gelatinase B) catalytic domain (Homo sapiens)
Sequence (P14780 107-457 limits assumed): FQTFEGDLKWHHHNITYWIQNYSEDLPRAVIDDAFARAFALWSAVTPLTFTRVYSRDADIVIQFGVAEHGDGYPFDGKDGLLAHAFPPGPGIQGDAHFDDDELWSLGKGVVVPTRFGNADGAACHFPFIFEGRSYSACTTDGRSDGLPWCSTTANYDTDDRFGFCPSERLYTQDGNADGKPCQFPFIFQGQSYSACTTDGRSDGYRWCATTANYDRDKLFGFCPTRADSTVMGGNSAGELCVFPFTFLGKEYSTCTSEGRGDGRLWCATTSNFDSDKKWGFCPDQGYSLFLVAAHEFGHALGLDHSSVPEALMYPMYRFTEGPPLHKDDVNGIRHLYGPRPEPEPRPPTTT
pIC50: −log10 of the molar value.

{"columns": ["CHEMICAL STRUCTURE", "pIC50"],
 "data": [
  ["CC(C)C[C@@H](NC(=O)[C@@H]1CCCN1C(=O)CNC(=O)c1ccc(N)cc1)C(=O)N[C@H](C)C(=O)NO", 3.68]
]}
